- target_desc: FXR ligand binding domain (GST-FXR LBD fusion protein, human FXR aa 193-473) (Homo sapiens, UniProt Q96RI1)
- Construct: fused on or other part: Glutathione-S-transferase (GST) fused N-terminally to the FXR LBD, used to capture the protein on glutathione SPA beads
- Sequence (Q96RI1 211-486 limits assumed): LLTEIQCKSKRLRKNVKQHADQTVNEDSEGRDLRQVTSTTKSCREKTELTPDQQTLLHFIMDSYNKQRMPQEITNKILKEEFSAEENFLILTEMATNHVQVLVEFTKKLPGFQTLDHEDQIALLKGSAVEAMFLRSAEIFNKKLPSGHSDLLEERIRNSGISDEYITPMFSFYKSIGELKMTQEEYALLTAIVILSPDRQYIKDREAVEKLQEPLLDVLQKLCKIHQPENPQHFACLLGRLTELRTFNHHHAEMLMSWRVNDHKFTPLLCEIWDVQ
- assay: Radioligand binding assay (scintillation proximity, radioligand displacement)
- condition_context: 40 nM GST-FXR LBD on SPA beads, test compound 6×10^−9 M to 2.5×10^−5 M, read-out: h-IC50 Binding
pIC50: −log10 of the molar value.
experimental_endpoint: pIC50

Some entries whose results are on file:
compound="COc1ccc(-c2nc3cc(F)c(F)cc3n2C(COc2ccc(C(=O)O)cn2)C2CCCCC2)c(OC)n1 (single isomer, unassigned; (+)) [Example 74]" recorded_measurement=6.30
compound="O=C(O)COc1ccc(OCC(C2CCCCC2)n2c(-c3ccc(Cl)cc3)nc3cc(F)c(F)cc32)nc1 (stereo not shown)" recorded_measurement=7.70
compound="O=C(O)c1ccccc1OCC(C1CCCCC1)n1c(-c2ccc(Cl)cc2)nc2cc(F)c(F)cc21 (stereo not shown)" recorded_measurement=5.70
compound="CC(C)(Oc1ccc(OCC(C2CCCCC2)n2c(-c3ccc(Cl)cc3)nc3cc(F)c(F)cc32)nc1)C(=O)O (single isomer, unassigned; (-)) [Example 49]" recorded_measurement=6.40

(P) O=C(O)c1ccc(OCC(C2CCCCC2)n2c(-c3ccc(Cl)cc3)nc3cc(F)c(F)cc32)c(C(F)(F)F)c1 (single isomer, unassigned; (-)) [Example 41]
(Q) Cc1cc(Cl)ccc1-c1nc2cc(F)c(F)cc2n1C(COc1c(F)cc(C(=O)O)cc1F)C1CCCCC1 (single isomer, unassigned; (-)) [Example 125]
Compare pIC50: is it lower for P or for Q ? Let me know the label of the one you choose. P

(P) Cc1cc(Cl)ccc1-c1nc2cc(F)c(F)cc2n1C(COc1ccc(C(=O)O)cn1)C1CCCCC1 (stereo not shown)
(Q) Cc1cc(C(=O)O)cc(C)c1OCC(C1CCCCC1)n1c(-c2ccc(Cl)cc2)nc2cc(F)c(F)cc21 (single isomer, unassigned; (+)) [Example 54]
(R) Fc1cc2nc(-c3ccc(Cl)cc3)n(C(COc3c(F)cc(-c4nnn[nH]4)cc3F)C3CCCCC3)c2cc1F (stereo not shown)
(S) O=C(O)c1cnc(OCC(C2CCCCC2)n2c(-c3ccc(Cl)cc3)nc3cc(F)c(F)cc32)c2ccsc12 (single isomer, unassigned; (+)) [Example 27]
List items by pIC50 in falling order. Answer by listing the labels in the requested order. R, P, Q, S
(R: 9.00, P: 7.52, Q: 7.00, S: 6.52)

(a) O=C(O)c1ccnc(OCC(C2CCCCC2)n2c(-c3ccc(Cl)cc3)nc3cc(F)c(F)cc32)c1 (stereo not shown)
(b) CC(C)(Oc1ccc(-c2nnn[nH]2)cc1)C(C1CCCCC1)n1c(-c2ccc(Cl)cc2)nc2cc(F)c(F)cc21 (single isomer, unassigned; (-))
Determine, for a and b , which has the greater value of pIC50. Let me know the label of the one you choose. b
(b: 8.52, a: 6.40)

====

- target_desc: FXR ligand binding domain (GST-FXR LBD fusion protein, human FXR aa 193-473) (Homo sapiens)
- Construct: fused on or other part: Glutathione-S-transferase (GST) fused N-terminally to the FXR LBD, used to capture the protein on glutathione SPA beads
- assay: Radioligand binding assay (scintillation proximity, radioligand displacement)
- condition_context: h-IC50 Binding, 40 nM GST-FXR LBD on SPA beads, test compound 6×10^−9 M to 2.5×10^−5 M
experimental_endpoint: IC50 (nM)
// return numeric value only (unit: nM, not printed)

compound="O=C(O)c1ccc(OCC(C2CCCCC2)n2c(-c3ccc(Cl)cc3)nc3cc(F)c(F)cc32)c(F)c1 (centres unmarked) [Example 7]" recorded_measurement=20

Could you share which IC50 value was measured for O=C(O)c1ccc(OCC(C2CCCCC2)n2c(-c3ccc(Cl)cc3)nc3cc(F)c(F)cc32)c(Cl)c1 (centres unmarked) [Example 10] ? 30

Could you share which IC50 value was measured for O=C(O)c1ccc(OCC(C2CCCCC2)n2c(-c3ccc(Cl)cc3)nc3cc(F)c(F)cc32)c(F)c1 (single isomer, unassigned; (-)) [Example 8] ? 20

Could you share which IC50 value was measured for O=C(O)c1ccc(OCC(C2CCCCC2)n2c(-c3ccc(Cl)cc3)nc3cc(F)c(F)cc32)cc1 (single isomer, unassigned; (+)) [Example 5] ? 40

Could you share which IC50 value was measured for O=C(O)COc1ccc(OCC(C2CCCCC2)n2c(-c3ccc(Cl)cc3)nc3cc(F)c(F)cc32)cc1 (centres unmarked) [Example 91] ? 60
